Measurement kind: melting point

Use the examples below as a reference point.
**Query** Need melting point, item Nc1nc(-c2ccc(OCc3ccccc3)cc2)nc(N2CCc3ccccc32)n1 [9{7,15}]
**Result** 188 to 189 °C

**Query** Please look up its melting point: Nc1nc(-c2cccc(Oc3ccccc3)c2)nc(N2CCCC2)n1 [9{1,13}]
**Result** 170 to 171 °C

**Query** # melting point lookup, item COc1ccc(-c2nc(N)nc(N3CCc4ccccc4C3)n2)cc1OC [9{6,16}]
**Result** 159 to 160 °C

**Query** Returns the measured melting point for the input compound. Input: COc1ccc(-c2nc(N)nc(N3CCCCC3)n2)cc1 [9{2,9}]
**Result** 178 to 179 °C

Now consider a different compound.
**Query** Which value of melting point has been reported for COc1ccc(-c2nc(N)nc(N3CCCC3)n2)cc1OC [9{1,16}] in the records?
**Result** 217 to 218 °C

---

Entries and their measured melting point follow.

Some solved entries appear below for comparison.
**Query** Entry under review: Cc1cccc(-c2nc(N)nc(N3CCc4ccccc4C3)n2)c1 . Reported melting point?
**Result** 145 to 146 °C

**Query** Param item = CN1CCN(c2nc(N)nc(-c3cccc(OCc4ccccc4)c3)n2)CC1 ; retrieve measured melting point.
**Result** 117 to 118 °C

**Query** Reported melting point, compound Nc1nc(-c2cccc([N+](=O)[O-])c2)nc(N2CCCCC2)n1 : ____
**Result** 158 to 159 °C

Further cases:
**Query** Reported melting point, compound Nc1nc(-c2ccc(OCc3ccccc3)cc2)nc(N2CCc3ccccc3C2)n1 : ____
**Result** 143 to 144 °C

**Query** Tell me the measured melting point of Nc1nc(-c2cccc(OCc3ccccc3)c2)nc(N2CCc3ccccc3C2)n1 , please.
**Result** 143 to 144 °C

---

Measurement kind: melting point

Recorded melting point, per entry:
**Query** Query (compound): CN1CCN(c2nc(N)nc(-c3ccc(OCc4ccccc4)cc3)n2)CC1 ; field requested: melting point
**Result** 191 to 192 °C

**Query** Find the recorded melting point belonging to CC1CCN(c2nc(N)nc(-c3ccc(Cl)cc3)n2)CC1 and report it.
**Result** 168 to 169 °C

**Query** Given Nc1nc(-c2cccc(OCc3ccccc3)c2)nc(N2CCCCC2)n1 , state its recorded melting point.
**Result** 157 to 158 °C

**Query** Requested read-out: melting point. Entry: COc1ccc(-c2nc(N)nc(N3CCN(C)CC3)n2)cc1OC
**Result** 223 to 224 °C

**Query** Please give the measured melting point for this compound: Nc1nc(-c2ccc(F)cc2)nc(N2CCCCC2)n1
**Result** 156 to 157 °C

New cases:
**Query** // lookup melting point for COc1ccc(-c2nc(N)nc(N3CCc4ccccc43)n2)cc1
**Result** 219 to 220 °C

**Query** Request the reported melting point associated with Nc1nc(-c2cccs2)nc(N2CCCC2)n1
**Result** 210 to 211 °C

---

Measurement kind: melting point

Solved cases (4 shown):
**Query** Looking for the measured melting point of Cc1ccc(-c2nc(N)nc(N3CCC(C)CC3)n2)cc1 , can you help?
**Result** > 300 °C

**Query** Query: melting point; subject: CC1CCN(c2nc(N)nc(-c3ccc(F)cc3)n2)CC1
**Result** > 300 °C

**Query** Item under review: Cc1ccc(-c2nc(N)nc(N3CCc4ccccc4C3)n2)cc1 . Reported melting point?
**Result** 166 to 167 °C

**Query** Quick one: melting point for COc1cc(-c2nc(N)nc(N3CCc4ccccc43)n2)cc(OC)c1OC ?
**Result** 199 to 200 °C

Now let's try a different one.
**Query** Reported melting point for Cc1ccc(-c2nc(N)nc(N3CCCC3)n2)cc1 : what is it?
**Result** 229 to 230 °C

---

Measurement kind: melting point

Solved entries:
**Query** # lookup: melting point of CC1CCN(c2nc(N)nc(-c3ccc(C(F)(F)F)cc3)n2)CC1
**Result** 170 to 171 °C

**Query** If you can, please state the reported melting point value of CC(C)(C)c1ccc(-c2nc(N)nc(N3CCCC3)n2)cc1 .
**Result** 196 to 197 °C

**Query** Find the recorded melting point belonging to Cc1cccc(-c2nc(N)nc(N3CCCC3)n2)c1 and report it.
**Result** 185 to 186 °C

**Query** # get_value(readout='melting point', item= Nc1nc(-c2cccc(Oc3ccccc3)c2)nc(N2CCCCC2)n1 )
**Result** 125 to 126 °C

# evaluate next
**Query** Need melting point of COc1cc(-c2nc(N)nc(N3CCCC3)n2)cc(OC)c1OC , thanks.
**Result** 213 to 214 °C
